Biological target: protein kinase B (PKB)
Test: cell-based or functional assay
Square brackets hold non-standard residues; d marks the D form. * marks the point of attachment. Cholesteryloxycarbonyl = CC(C)CCC[C@@H](C)[C@H]1CC[C@H]2[C@@H]3CC=C4C[C@@H](OC(=O)*)CC[C@]4(C)[C@H]3CC[C@]12C; hLeu = CC(C)CC[C@H](N)C(=O)O; Orn = NCCC[C@H](N)C(=O)O; Nva = CCC[C@H](N)C(=O)O; Dap = NC[C@H](N)C(=O)O
MEASURED METRIC: IC50, kinase assay PKB (nM)
Give just the numeric value; nM need not be written.

These recorded examples may help you get a feel for the data.
BINDER	IC50, kinase assay PKB (nM)
Cholesteryloxycarbonyl-GRPR[Nva]YA[hLeu]-NH2 (SMILES CCC[C@H](NC(=O)[C@H](CCCNC(=N)N)NC(=O)[C@@H]1CCCN1C(=O)[C@H](CCCNC(=N)N)NC(=O)CNC(=O)O[C@H]1CC[C@@]2(C)C(=CC[C@H]3[C@@H]4CC[C@H]([C@H](C)CCCC(C)C)[C@@]4(C)CC[C@@H]32)C1)C(=O)N[C@@H](Cc1ccc(O)cc1)C(=O)N[C@@H](C)C(=O)N[C@@H](CCC(C)C)C(N)=O) [PTR 6198]	500
Cholesteryloxycarbonyl-RPR[Nva]Y[Dap][hLeu]-NH2 (SMILES CCC[C@H](NC(=O)[C@H](CCCNC(=N)N)NC(=O)[C@@H]1CCCN1C(=O)[C@H](CCCNC(=N)N)NC(=O)O[C@H]1CC[C@@]2(C)C(=CC[C@H]3[C@@H]4CC[C@H]([C@H](C)CCCC(C)C)[C@@]4(C)CC[C@@H]32)C1)C(=O)N[C@@H](Cc1ccc(O)cc1)C(=O)N[C@@H](CN)C(=O)N[C@@H](CCC(C)C)C(N)=O) [PTR 6164]	700

Data request: Name the recorded IC50, kinase assay PKB for Cholesteryloxycarbonyl-RPR[Orn]E(Aminoethylsulfonamidoisoquinoline)SF-NH2 [PTR 6260] .
Data returned: 1000
